# Test system: SW1088 cells (human brain cancer cell line)
# MEASUREMENT_NOTES: Inhibition of cell proliferation, xCelligence cell index
# Type: cell-based
# RUN_PARAMETERS: 72 hr post compound treatment, read-out: calculated IC50
Structures can show the parent of a compound that is named as a salt.
REPORTED_METRIC: pIC50
Answers are plain numbers, as −log10 of the molar value.

INSERT INTO measurements (molecule, reported_measurement) VALUES
  ('CC[C@]1(O)C[C@H]2CN(CCc3c([nH]c4ccccc34)[C@@](C(=O)OC)(c3cc4c(cc3OC)N(C=O)[C@H]3[C@@](O)(C(=O)OC)[C@H](OC(C)=O)[C@]5(CC)C=CCN6CC[C@]43[C@@H]65)C2)C1', 8.30),
  ('CCc1ccc(Nc2nc(-c3c(C)nc4sccn34)cs2)cc1 [COMPOUND O, monohydrobromide]', 7.67);

Proceed to the following item.
Input `CC(=O)O[C@H]1C(=O)[C@@]2(C)[C@H]([C@H](OC(=O)c3ccccc3)[C@]3(O)C[C@H](OC(=O)[C@H](O)[C@@H](NC(=O)c4ccccc4)c4ccccc4)C(C)=C1C3(C)C)[C@]1(OC(C)=O)CO[C@@H]1C[C@@H]2O` . Output pIC50: 7.88
